Values were extracted from patent US20190375824A1.

# experimental_target: T1, human serum albumin (human, UniProt P02768 25-609)
# T1 construct: Antigen in the SPR assay
# experiment_notes: SPR
property_name: kon (M⁻¹ s⁻¹)
Value expressed in M⁻¹ s⁻¹; do not type the unit.

[[record]]
binder = "VHH antibody in which glycine in position 36, arginine in position 50, glycine in position 78, and serine in position 116 of SEQ ID NO: 1 were substituted (SEQ … (VHH, Text says asparagine at IMGT 36; also called G36D/R50L/G78A/S116R mutant) VHH: QVQLVESGGGLVQAGDSLRLSCAASGRTFSDYAMGWFRQAPGKELEFVARINWSGTLTYYADSVKGRFTASRDNAKNTVYLQMNSLKPEDTAVYYCAQRGDSGSNYDPSGYRYWGQGTQVTVSS"
value_reported = 933000

[[record]]
binder = "VHH antibody of SEQ ID NO: 1 (VHH, Isolated from a phage library; also called WT VHH) VHH: QVQLVESGGGLVQAGDSLRLSCAASGRTFSGYAMGWFRQAPGKEREFVARINWSGTLTYYADSVKGRFTGSRDNAKNTVYLQMNSLKPEDTAVYYCAQRGDSGSNYDPSGYSYWGQGTQVTVSS"
value_reported = "1.42e+06"

[[record]]
binder = "VHH antibody in which glycine in position 78 of SEQ ID NO: 1 was substituted with alanine (SEQ ID NO: 5) (VHH, Expressed in E. coli; also called G78A mutant) VHH: QVQLVESGGGLVQAGDSLRLSCAASGRTFSGYAMGWFRQAPGKEREFVARINWSGTLTYYADSVKGRFTASRDNAKNTVYLQMNSLKPEDTAVYYCAQRGDSGSNYDPSGYSYWGQGTQVTVSS"
value_reported = 61200


Per the record, VHH antibody in which glycine in position 36 and serine in position 116 of SEQ ID NO: 1 were substituted (SEQ ID NO: 7) (VHH, Text says asparagine at IMGT 36; also called G36D/S116R mutant) VHH: QVQLVESGGGLVQAGDSLRLSCAASGRTFSDYAMGWFRQAPGKEREFVARINWSGTLTYYADSVKGRFTGSRDNAKNTVYLQMNSLKPEDTAVYYCAQRGDSGSNYDPSGYRYWGQGTQVTVSS has kon of 1.44e+06

Per the record, VHH antibody in which glycine in position 36 of SEQ ID NO: 1 was substituted (SEQ ID NO: 3) (VHH, Text says asparagine at IMGT 36; Expressed in E. coli; also called G36D mutant) VHH: QVQLVESGGGLVQAGDSLRLSCAASGRTFSDYAMGWFRQAPGKEREFVARINWSGTLTYYADSVKGRFTGSRDNAKNTVYLQMNSLKPEDTAVYYCAQRGDSGSNYDPSGYSYWGQGTQVTVSS has kon of 2.04e+06

Per the record, VHH antibody in which arginine in position 50 of SEQ ID NO: 1 was substituted (SEQ ID NO: 4) (VHH, Text says asparagine at IMGT 50; Expressed in E. coli; also called R50L mutant) VHH: QVQLVESGGGLVQAGDSLRLSCAASGRTFSGYAMGWFRQAPGKELEFVARINWSGTLTYYADSVKGRFTGSRDNAKNTVYLQMNSLKPEDTAVYYCAQRGDSGSNYDPSGYSYWGQGTQVTVSS has kon of 1.93e+06

Per the record, VHH antibody in which glycine in position 36, arginine in position 50, and serine in position 116 of SEQ ID NO: 1 were substituted (SEQ ID NO: 9) (VHH, Text says asparagine at IMGT 36; also called G36D/R50L/S116R mutant) VHH: QVQLVESGGGLVQAGDSLRLSCAASGRTFSDYAMGWFRQAPGKELEFVARINWSGTLTYYADSVKGRFTGSRDNAKNTVYLQMNSLKPEDTAVYYCAQRGDSGSNYDPSGYRYWGQGTQVTVSS has kon of 1.13e+06

Per the record, VHH antibody in which serine in position 116 of SEQ ID NO: 1 was substituted with arginine (SEQ ID NO: 6) (VHH, Expressed in E. coli; also called S116R mutant) VHH: QVQLVESGGGLVQAGDSLRLSCAASGRTFSGYAMGWFRQAPGKEREFVARINWSGTLTYYADSVKGRFTGSRDNAKNTVYLQMNSLKPEDTAVYYCAQRGDSGSNYDPSGYRYWGQGTQVTVSS has kon of 1.66e+07

Per the record, VHH antibody in which glycine in position 36, glycine in position 78, and serine in position 116 of SEQ ID NO: 1 were substituted (SEQ ID NO: 10) (VHH, Text says asparagine at IMGT 36; also called G36D/G78A/S116R mutant) VHH: QVQLVESGGGLVQAGDSLRLSCAASGRTFSDYAMGWFRQAPGKEREFVARINWSGTLTYYADSVKGRFTASRDNAKNTVYLQMNSLKPEDTAVYYCAQRGDSGSNYDPSGYRYWGQGTQVTVSS has kon of 1.13e+06
